Tested on: MDA-MB-231 (human breast cancer) cell line
assayText: MTT cell viability assay in MDA-MB-231 cells
Format: cell-based
testParameters: Homo sapiens, MDA-MB-231, 72 h, MDA-MB-231, 25 µM, 72 h, MTT; read-out: Cell Viability (%) ± SD
Procedure: IC50 values were determined by plotting values of percent cell viability against concentration of each of these compounds. […] The experiments were performed in triplicates, n = 3 and ± SE value was calculated for each data point. […] Cell viability assay was performed as per standard protocols. […] The percentage of viable cells in each group is determined with respect to the untreated control cells.
parameter: viability at 25 µM (%)

compound	experimentalValue
OC[C@H]1O[C@@H](Cc2cc(-c3c[nH]c4ccccc34)on2)[C@H](O)[C@@H](O)[C@@H]1O	106
O=[N+]([O-])c1ccc2[nH]cc(C3CC(C[C@@H]4O[C@H](CO)[C@H](O)[C@H](O)[C@H]4O)=NN3)c2c1 (stereo partly shown)	98.2
O=[N+]([O-])c1ccc2[nH]cc(-c3cc(C[C@@H]4O[C@H](CO)[C@@H](O)[C@H](O)[C@@H]4O)no3)c2c1	93.4
O=C(/C=C/c1c[nH]c2ccc(Cl)cc12)C[C@@H]1O[C@H](CO)[C@@H](O)[C@H](O)[C@@H]1O	54.3
O=[N+]([O-])c1ccc2[nH]cc(C3CC(C[C@@H]4O[C@H](CO)[C@@H](O)[C@H](O)[C@@H]4O)=NN3)c2c1 (stereo partly shown)	92.1
O=C(/C=C/c1c[nH]c2ccccc12)C[C@@H]1O[C@H](CO)[C@@H](O)[C@H](O)[C@H]1O	54
OC[C@H]1O[C@@H](CC2=NNC(c3c[nH]c4ccc(Br)cc34)C2)[C@H](O)[C@@H](O)[C@H]1O (stereo partly shown)	90.8

* * *

System: MDA-MB-231 (human breast cancer) cell line
assayText: MTT cell viability assay in MDA-MB-231 cells
Type: cell-based
testParameters: Homo sapiens, MDA-MB-231, 72 h, MDA-MB-231, 50 µM, 72 h, MTT; read-out: Cell Viability (%) ± SD

molecule	unitOfMeasurement	viability at 50 µM
O=C(/C=C/c1c[nH]c2ccc([N+](=O)[O-])cc12)C[C@@H]1O[C@H](CO)[C@H](O)[C@H](O)[C@H]1O [Compound 14]	%	60.6
O=C(/C=C/c1c[nH]c2ccc(Cl)cc12)C[C@@H]1O[C@H](CO)[C@@H](O)[C@H](O)[C@H]1O [Compound 12]	%	74.8
O=C(/C=C/c1c[nH]c2ccccc12)C[C@@H]1O[C@H](CO)[C@@H](O)[C@H](O)[C@@H]1O [Compound 17]	%	79.4
O=[N+]([O-])c1ccc2[nH]cc(C3CC(C[C@@H]4O[C@H](CO)[C@@H](O)[C@H](O)[C@H]4O)=NN3)c2c1 (stereo partly shown) [Compound 22]	%	70.3
O=C(/C=C/c1c[nH]c2ccccc12)C[C@@H]1O[C@H](CO)[C@@H](O)[C@H](O)[C@H]1O [Compound 9]	%	36.3
OC[C@H]1O[C@@H](Cc2cc(-c3c[nH]c4ccc(Cl)cc34)on2)[C@@H](O)[C@@H](O)[C@@H]1O [Compound 44]	%	81.7
O=C(/C=C/c1c[nH]c2ccc(Br)cc12)C[C@@H]1O[C@H](CO)[C@H](O)[C@H](O)[C@H]1O [Compound 15]	%	67.5
OC[C@H]1O[C@@H](CC2=NNC(c3c[nH]c4ccccc34)C2)[C@@H](O)[C@@H](O)[C@@H]1O (stereo partly shown) [Compound 29]	%	73.5
OC[C@H]1O[C@@H](Cc2cc(-c3c[nH]c4ccc(Br)cc34)on2)[C@H](O)[C@@H](O)[C@@H]1O [Compound 35]	%	93.9
O=C(/C=C/c1c[nH]c2ccc(Cl)cc12)C[C@@H]1O[C@H](CO)[C@H](O)[C@H](O)[C@H]1O [Compound 16]	%	56.7
O=[N+]([O-])c1ccc2[nH]cc(C3CC(C[C@@H]4O[C@H](CO)[C@@H](O)[C@H](O)[C@@H]4O)=NN3)c2c1 (stereo partly shown) [Compound 30]	%	88
OC[C@H]1O[C@@H](CC2=NNC(c3c[nH]c4ccc(Br)cc34)C2)[C@@H](O)[C@@H](O)[C@@H]1O (stereo partly shown) [Compound 31]	%	87.6
OC[C@H]1O[C@@H](CC2=NNC(c3c[nH]c4ccc(Br)cc34)C2)[C@H](O)[C@@H](O)[C@H]1O (stereo partly shown) [Compound 27]	%	97.7
OC[C@H]1O[C@@H](CC2=NNC(c3c[nH]c4ccccc34)C2)[C@H](O)[C@@H](O)[C@H]1O (stereo partly shown) [Compound 25]	%	43.8
O=[N+]([O-])c1ccc2[nH]cc(-c3cc(C[C@@H]4O[C@H](CO)[C@H](O)[C@H](O)[C@H]4O)no3)c2c1 [Compound 38]	%	94.9
OC[C@H]1O[C@@H](CC2=NNC(c3c[nH]c4ccccc34)C2)[C@H](O)[C@@H](O)[C@@H]1O (stereo partly shown) [Compound 21]	%	75

* * *

subjectOfTest: COX-2 enzyme (Homo sapiens, UniProt P35354)
Construct: purchased Bio Vision (BioVision), USA K547 / k547–100
Sequence (P35354 18-604): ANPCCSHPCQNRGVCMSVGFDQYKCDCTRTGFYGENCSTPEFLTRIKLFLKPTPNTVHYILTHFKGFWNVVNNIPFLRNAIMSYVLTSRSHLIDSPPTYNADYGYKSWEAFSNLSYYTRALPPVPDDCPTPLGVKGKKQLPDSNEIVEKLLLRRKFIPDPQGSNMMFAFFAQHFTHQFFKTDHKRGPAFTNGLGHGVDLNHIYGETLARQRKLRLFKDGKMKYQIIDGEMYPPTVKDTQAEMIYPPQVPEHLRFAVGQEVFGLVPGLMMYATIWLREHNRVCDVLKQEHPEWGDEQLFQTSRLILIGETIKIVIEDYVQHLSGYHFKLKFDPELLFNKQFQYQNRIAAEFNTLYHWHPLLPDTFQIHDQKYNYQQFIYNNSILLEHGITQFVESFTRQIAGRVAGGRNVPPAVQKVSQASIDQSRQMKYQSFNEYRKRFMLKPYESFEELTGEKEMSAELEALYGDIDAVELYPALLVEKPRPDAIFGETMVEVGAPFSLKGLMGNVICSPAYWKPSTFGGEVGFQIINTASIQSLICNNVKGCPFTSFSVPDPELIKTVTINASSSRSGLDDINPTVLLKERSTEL
assayText: Fluorescence-based COX-2 inhibitor screening assay
Type: biochemical
testParameters: 50 μM
inhibition at 50 µM reference

compound	subjectOfTest	unitOfMeasurement	inhibition at 50 µM
OC[C@H]1O[C@@H](CC2=NNC(c3c[nH]c4ccccc34)C2)[C@H](O)[C@@H](O)[C@H]1O (some centres unmarked)	COX-2 enzyme (Homo sapiens, UniProt P35354)	%	27
OC[C@H]1O[C@@H](Cc2cc(-c3c[nH]c4ccccc34)on2)[C@H](O)[C@@H](O)[C@H]1O	COX-2 enzyme (Homo sapiens, UniProt P35354)	%	95
O=C(/C=C/c1c[nH]c2ccc(Cl)cc12)C[C@@H]1O[C@H](CO)[C@@H](O)[C@H](O)[C@@H]1O	COX-2 enzyme (Homo sapiens, UniProt P35354)	%	39
O=[N+]([O-])c1ccc2[nH]cc(-c3cc(C[C@@H]4O[C@H](CO)[C@@H](O)[C@H](O)[C@H]4O)no3)c2c1	COX-2 enzyme (Homo sapiens, UniProt P35354)	%	59
O=C(/C=C/c1c[nH]c2ccccc12)C[C@@H]1O[C@H](CO)[C@@H](O)[C@H](O)[C@H]1O	COX-2 enzyme (Homo sapiens, UniProt P35354)	%	71

* * *

viability at 50 µM reference
System: MDA-MB-231 (human breast cancer) cell line
assayText: MTT cell viability assay in MDA-MB-231 cells
Type: cell-based
testParameters: Homo sapiens, MDA-MB-231, 72 h, MDA-MB-231, 50 µM, 72 h, MTT; read-out: Cell Viability (%) ± SD

molecule	unitOfMeasurement	viability at 50 µM
OC[C@H]1O[C@@H](CC2=NNC(c3c[nH]c4ccc(Br)cc34)C2)[C@H](O)[C@@H](O)[C@@H]1O (stereo partly shown)	%	81.5
O=C(/C=C/c1c[nH]c2ccccc12)C[C@@H]1O[C@H](CO)[C@H](O)[C@H](O)[C@H]1O	%	84.2
O=[N+]([O-])c1ccc2[nH]cc(-c3cc(C[C@@H]4O[C@H](CO)[C@@H](O)[C@H](O)[C@H]4O)no3)c2c1	%	43.4
O=C(/C=C/c1c[nH]c2ccc(Br)cc12)C[C@@H]1O[C@H](CO)[C@@H](O)[C@H](O)[C@H]1O	%	108

* * *

assayText: MTT cell viability assay in normal MCF-10A cells
Format: cell-based
testParameters: human, MCF-10A normal mammary epithelial cells, 100 µM, read-out: Cell Viability (%) ± SD
viability at 72 h, 100 µM reference
parameter: viability at 72 h, 100 µM (%)

compound	parameter	experimentalValue
O=C(/C=C/c1c[nH]c2ccccc12)C[C@@H]1O[C@H](CO)[C@@H](O)[C@H](O)[C@H]1O	viability at 72 h, 100 µM	84.2
OC[C@H]1O[C@@H](CC2=NNC(c3c[nH]c4ccccc34)C2)[C@H](O)[C@@H](O)[C@H]1O (stereo partly drawn)	viability at 72 h, 100 µM	82.4
O=[N+]([O-])c1ccc2[nH]cc(-c3cc(C[C@@H]4O[C@H](CO)[C@@H](O)[C@H](O)[C@H]4O)no3)c2c1	viability at 72 h, 100 µM	84.2
O=C(/C=C/c1c[nH]c2ccc(Cl)cc12)C[C@@H]1O[C@H](CO)[C@@H](O)[C@H](O)[C@@H]1O	viability at 72 h, 100 µM	36.5
OC[C@H]1O[C@@H](Cc2cc(-c3c[nH]c4ccccc34)on2)[C@H](O)[C@@H](O)[C@H]1O	viability at 72 h, 100 µM	81
O=C(/C=C/c1c[nH]c2ccc([N+](=O)[O-])cc12)C[C@@H]1O[C@H](CO)[C@H](O)[C@H](O)[C@H]1O	viability at 72 h, 100 µM	80
